# Test system: Pseudomonas aeruginosa 104
# procedure summary: Minimal inhibitory concentration by agar dilution method
# Assay type: cell-based
experimental endpoint: MIC (mg/L)

INSERT INTO assay_data (compound, measured) VALUES
  ('CC(C)(C)C(=O)Oc1c(C(=O)N[C@@H](C(=O)N[C@@H]2C(=O)N3[C@@H]2SC(C)(C)[C@@H]3C(=O)O)c2ccccc2)cnc2c1CCCC2 [Example 5]', 12.5),
  ('CC1(C)S[C@@H]2[C@H](NC(=O)C(NC(=O)c3cnccc3O)c3cnsc3)C(=O)N2[C@H]1C(=O)O (stereo partly drawn) [Example 16]', 6.25),
  ('CCOC(=O)Oc1c(C(=O)N[C@@H](C(=O)N[C@@H]2C(=O)N3[C@@H]2SC(C)(C)[C@@H]3C(=O)O)c2ccccc2)cnc2c1CCC2 [Example 1]', 6.25);

* * *

# System: Pseudomonas aeruginosa 104
# procedure summary: Minimal inhibitory concentration by agar dilution method
# Format: cell-based
Reported MIC values for the following molecules.
experimental endpoint: MIC

INSERT INTO results (molecule, measured) VALUES
  ('CC1(C)S[C@@H]2[C@H](NC(=O)[C@H](NC(=O)c3cnc4c(c3O)CCC4)c3ccccc3)C(=O)N2[C@H]1C(=O)O', '12.5 µg/mL'),
  ('CC(C)CC(NC(=O)c1ccnnc1O)C(=O)N[C@@H]1C(=O)N2[C@@H]1SC(C)(C)[C@@H]2C(=O)O (stereo partly shown)', '12.5 µg/mL'),
  ('CC1(C)S[C@@H]2[C@H](NC(=O)C(NC(=O)c3ccnnc3O)C3=CCC=CC3)C(=O)N2[C@H]1C(=O)O (stereo partly shown)', '3.13 µg/mL'),
  ('CC1(C)S[C@@H]2[C@H](NC(=O)C(NC(=O)c3ccnnc3O)c3ccsc3)C(=O)N2[C@H]1C(=O)O (stereo partly shown)', '3.13 µg/mL'),
  ('CC1(C)S[C@@H]2[C@H](NC(=O)C(NC(=O)c3ccnnc3O)c3cnsc3)C(=O)N2[C@H]1C(=O)O (stereo partly shown)', '6.25 µg/mL'),
  ('CC1(C)S[C@@H]2[C@H](NC(=O)[C@H](NC(=O)c3cccnc3O)c3ccc(O)cc3)C(=O)N2[C@H]1C(=O)O', '6.25 µg/mL'),
  ('CC1(C)S[C@@H]2[C@H](NC(=O)C(NC(=O)c3cnccc3O)c3ccccc3)C(=O)N2[C@H]1C(=O)O (stereo partly shown)', '6.23 µg/mL');

* * *

# Tested on: Staphylococcus aureus 209P
# procedure summary: Minimal inhibitory concentration by agar dilution method
# Type: cell-based
experimental endpoint: MIC

INSERT INTO measurements (molecule, measurement_target, experimental_endpoint, measured) VALUES
  ('CC1(C)S[C@@H]2[C@H](NC(=O)[C@H](NC(=O)c3cnccc3O)c3ccc(O)cc3)C(=O)N2[C@H]1C(=O)O', 'Staphylococcus aureus 209P', 'MIC', '0.78 mg/L'),
  ('CC1(C)S[C@@H]2[C@H](NC(=O)C(NC(=O)c3ccnnc3O)c3cnsc3)C(=O)N2[C@H]1C(=O)O (stereo partly shown)', 'Staphylococcus aureus 209P', 'MIC', '0.39 mg/L'),
  ('CC(C)CC(NC(=O)c1ccnnc1O)C(=O)N[C@@H]1C(=O)N2[C@@H]1SC(C)(C)[C@@H]2C(=O)O (stereo partly shown)', 'Staphylococcus aureus 209P', 'MIC', '0.39 mg/L'),
  ('CCOC(=O)Oc1c(C(=O)N[C@@H](C(=O)N[C@@H]2C(=O)N3[C@@H]2SC(C)(C)[C@@H]3C(=O)O)c2ccccc2)cnc2c1CCC2', 'Staphylococcus aureus 209P', 'MIC', '0.39 mg/L'),
  ('CC1(C)S[C@@H]2[C@H](NC(=O)[C@H](NC(=O)c3cccnc3O)c3ccc(O)cc3)C(=O)N2[C@H]1C(=O)O', 'Staphylococcus aureus 209P', 'MIC', '1.56 mg/L'),
  ('CC1(C)S[C@@H]2[C@H](NC(=O)C(NC(=O)c3cnccc3O)c3cnsc3)C(=O)N2[C@H]1C(=O)O (stereo partly shown)', 'Staphylococcus aureus 209P', 'MIC', '0.78 mg/L'),
  ('Cc1cc(C(=O)NC(C(=O)N[C@@H]2C(=O)N3[C@@H]2SC(C)(C)[C@@H]3C(=O)O)c2ccccc2)c(O)nn1 (stereo partly shown)', 'Staphylococcus aureus 209P', 'MIC', '0.39 mg/L');
